assay: gradient 5% acetonitrile 3 min, to 50% in 2 min, to 85% in 15 min, held 3 min, 100 µL/min; conditions: column: Zorbax Extend-C18 2.1 x 50 mm; eluents: water / acetonitrile, 0.1% formic acid
Reported RP-LC retention time values for a set of compounds

Compound	RP-LC retention time [s]
CCCNC(=O)C1CCCN(c2nc3ncn(CC(=O)NCCC4=CCCCC4)c(=O)c3s2)C1 (stereo not drawn)	732
O=C(CC1CCN(C(=O)c2cc(F)ccc2F)C1)NC1CC1 (stereo not drawn)	630
COc1cccc(-c2nc(C3CCN(S(=O)(=O)c4cccc(F)c4)CC3)no2)c1	1110
CCOC(=O)c1nc(N(C)c2ccc(F)cc2)c2ccccc2n1	909
CCN1C(=O)c2cccnc2Sc2cc(NC(=O)c3sccc3C)ccc21	842
CNC(=O)c1cc(-c2ccc(F)cc2)nc2ccccc12	819
COc1ccc(C2C(C(=O)Nc3ccc4c(c3)OCCO4)c3ccccc3C(=O)N2C)cc1 (stereo not drawn)	832
O=C(CN1C(=O)NC2(CCCCC2)C1=O)Nc1ccccc1Cl	764
CCOc1cc(-c2cccc(Cl)c2)nc2ccc(C(=O)N3CCN(c4ccccn4)CC3)cc12	692
O=C(c1ccoc1)N1CCCn2cc(-c3ccccc3F)nc21	649
O=C(Cn1nc(C(=O)N2CCCC2)c2ccccc21)NCc1ccccc1Cl	824
COC(=O)Nc1nc(CC(=O)NCc2ccccc2Cl)cs1	667
COC(=O)c1ccc(NC(=O)Cn2cccc(-c3nc(-c4ccccc4)no3)c2=O)cc1	829
